experiment-notes: Drug uptake in mitochondria of human HCT116 cells at 1 uM after 12 hrs by mass spectrometric analysis
Assay type: ADME
measurement-conditions: hct-116, 12 h

{"structure-notation": "CCNC(=O)c1noc(-c2cc(C(C)C)c(O)cc2O)c1NC(=O)CCCCC[P+](c1ccccc1)(c1ccccc1)c1ccccc1.[Br-]", "Drug uptake": "Active"}
{"structure-notation": "CCNC(=O)c1noc(-c2cc(C(C)C)c(O)cc2O)c1NC(=O)CCCCCCc1ccc(C(=O)NC(=N)N)cc1", "Drug uptake": "Active"}
{"structure-notation": "COc1cccc(-c2cc(F)ccc2[C@H]2Cc3nc(N)nc(C)c3C(=O)N2)n1", "Drug uptake": "Not Active"}
{"structure-notation": "CCNC(=O)c1noc(-c2cc(C(C)C)c(O)cc2O)c1NC(=O)c1ccc(C(=O)NC(=N)N)cc1", "Drug uptake": "Active"}
{"structure-notation": "CCNC(=O)c1noc(-c2cc(C(C)C)c(O)cc2O)c1NC(=O)CCCCC(=O)NCCCNCCNCCCN", "Drug uptake": "Active"}
{"structure-notation": "CCNC(=O)c1noc(-c2cc(C(C)C)c(O)cc2O)c1NC(=O)c1ccc(OC)cc1", "Drug uptake": "Not Active"}

====

target-entity: Heat shock protein HSP 90-alpha (Homo sapiens, UniProt P07900)
experiment-notes: Inhibition of FITC-geldanamycin binding to recombinant human HSP90alpha expressed in Escherichia coli by fluorescence anisotropy method
pIC50: −log10 of the molar value.

{"structure-notation": "CCNC(=O)c1noc(-c2cc(C(C)C)c(O)cc2O)c1NC(=O)c1ccc(C(=O)NC(=N)N)cc1", "pIC50": 7.68}
